Test system: Saccharomyces cerevisiae PS128 hsf1 delta, HSF1(1-493) fusion
experiment.summary: growth estimate (transactivation domain function in HSF1 fusion, heat-shock survival) (a.u. (slope of normalised read count over time)); higher = stronger growth at 37°C, i.e. more transactivation activity
measurement.parameters: library: design library
The entries below come with measured growth estimate values attached.

- record.sequence: "DELSWGIELLEKDG"
  test.target: "Saccharomyces cerevisiae PS128 hsf1 delta, HSF1(1-493) fusion"
  growth estimate: "< -0.25"
- record.sequence: "PEFPGIELQELQELRALLQQ"
  test.target: "Saccharomyces cerevisiae PS128 hsf1 delta, HSF1(1-493) fusion"
  growth estimate: "< -0.25"

Now turn to the next sequence.
stdin: Entry VADDRWEELLSEDL has what growth estimate?
stdout: < -0.25

* * *

Test system: Saccharomyces cerevisiae PS128 hsf1 delta, HSF1(1-493) fusion
experiment.summary: growth estimate (transactivation domain function in HSF1 fusion, heat-shock survival) (a.u. (slope of normalised read count over time)); higher = stronger growth at 37°C, i.e. more transactivation activity
measurement.parameters: library: design library
Consider the following sequences and their measured growth estimate readings.
Lab note: record the figure alone, no unit after it.

- record.sequence: "TMDAVYNYLFDD"
  measure.name: "growth estimate"
  numeric.value: 0.158
- record.sequence: "PFPDTQDAFLKWWRSEEAQ"
  measure.name: "growth estimate"
  numeric.value: 0.5
- record.sequence: "EANDLLDLDFILSN"
  measure.name: "growth estimate"
  numeric.value: 0.0838
- record.sequence: "DFDLDMLGDFDLDMGG"
  measure.name: "growth estimate"
  numeric.value: 16.5
- record.sequence: "KLSSHGFSVDTSALLDLFSP"
  measure.name: "growth estimate"
  numeric.value: -0.241
- record.sequence: "DELAWIIELLEKDG"
  measure.name: "growth estimate"
  numeric.value: 0.883
- record.sequence: "MLSSHRFSVDTSALLDLFSP"
  measure.name: "growth estimate"
  numeric.value: -0.227
- record.sequence: "EDDDEFPLWDSML"
  measure.name: "growth estimate"
  numeric.value: 0.199

stdin: Request the reported growth estimate associated with EFNDLLDLDFIGSN
stdout: 2.81

stdin: May I ask what growth estimate has been recorded for PFPDTQDDFLKWWRSEEAA ?
stdout: -0.236

stdin: Entry DFDLDMLGAFDLDMLG : reported growth estimate = ?
stdout: 5.97

stdin: Name the recorded growth estimate for EDLYSILWSDAY .
stdout: 0.452

stdin: growth estimate lookup needed for VKDDIWEELLSEDL , thanks.
stdout: -0.23

stdin: # get_value(readout='growth estimate', item= DFDADMLGDFDLDMLG )
stdout: 6.93

* * *

Test system: Saccharomyces cerevisiae PS128 hsf1 delta, HSF1(1-493) fusion
experiment.summary: growth estimate (transactivation domain function in HSF1 fusion, heat-shock survival) (a.u. (slope of normalised read count over time)); higher = stronger growth at 37°C, i.e. more transactivation activity
measurement.parameters: library: design library
measure.name: growth estimate
Response field accepts a number only; no unit should be typed.

Known growth estimate results, listed for orientation:
- record.sequence: "TMDDVYNYLFAD"
  growth estimate: 1.32
- record.sequence: "DFDLDMLGDFDLPMLG"
  growth estimate: 1.24
- record.sequence: "VADDIWKELLSEDL"
  growth estimate: 3.97
- record.sequence: "RFPDTQDDFLKWWRSEEAQ"
  growth estimate: -0.221
- record.sequence: "MLSSHGFSVDTSALLGLFSP"
  growth estimate: -0.207
- record.sequence: "KFDLDMLGDFDLDMLG"
  growth estimate: 0.164
- record.sequence: "PFPPTQDDFLKWWRSEEAQ"
  growth estimate: -0.215
- record.sequence: "EDLYSILWSDVG"
  growth estimate: -0.0353
- record.sequence: "TMPDVYNYLFDD"
  growth estimate: -0.0795
- record.sequence: "KFNDLLDLDFILSN"
  growth estimate: 0.326

stdin: Requested read-out: growth estimate. Entry: DFDLDRLGDFDLDMLG
stdout: 4.07

stdin: What value of measured growth estimate is listed for LFDYDFLFGADFA ?
stdout: 1.91

stdin: Which growth estimate reading was recorded for the sequence MLSSHGFSVDASALLDLFSP ?
stdout: 0.0915

stdin: Would you mind telling me what growth estimate value was observed for LFDYDALFGNDFA ?
stdout: 0.627

* * *

System: Saccharomyces cerevisiae PS128 hsf1 delta, HSF1(1-493) fusion
experiment.summary: growth estimate (transactivation domain function in HSF1 fusion, heat-shock survival) (a.u. (slope of normalised read count over time)); higher = stronger growth at 37°C, i.e. more transactivation activity
measurement.parameters: library: design library
measure.name: growth estimate

- record.sequence: "VADDIWEERLSEDL"
  growth estimate: "< -0.25"
- record.sequence: "PEFKGIELQELQELQALLQQ"
  growth estimate: "< -0.25"
- record.sequence: "DFDLDMLGDADLDMLG"
  growth estimate: 5.13
- record.sequence: "PGFPGIELQELQELQALLQQ"
  growth estimate: -0.0439

stdin: Dear colleague, I am looking for the recorded growth estimate of the following sequence: DELPWIIELLEKDG
stdout: -0.193

* * *

Tested on: Saccharomyces cerevisiae PS128 hsf1 delta, HSF1(1-493) fusion
experiment.summary: growth estimate (transactivation domain function in HSF1 fusion, heat-shock survival) (a.u. (slope of normalised read count over time)); higher = stronger growth at 37°C, i.e. more transactivation activity
measurement.parameters: library: design library
Quick reference: growth estimate of the listed items.
Give a plain numeric answer without units written out.

stdin: Please report the recorded growth estimate for PDDDEFSLWDSML .
stdout: 1.67

stdin: Need growth estimate of DELSWIAELLEKDG , thanks.
stdout: 0.851

stdin: Sample MLSSHGFSVDTSALLDLFSA — what was its growth estimate?
stdout: -0.127

stdin: # get_value(readout='growth estimate', item= EDDDGFSLWDSML )
stdout: 0.241

stdin: What value of growth estimate has been reported for the following sequence? EFNDLLDLDFILSK
stdout: 0.632

stdin: Which growth estimate is reported for this sequence? DELSWIIELLKKDG
stdout: -0.239

stdin: Request the reported growth estimate associated with EFNDLLDLDPILSN
stdout: -0.247

stdin: Could you share which growth estimate value was measured for MLSSHPFSVDTSALLDLFSP ?
stdout: -0.195

stdin: Entry DFDLDMLGDFDLDMLK : reported growth estimate = ?
stdout: 1.65

stdin: Reported growth estimate, sequence DFDLDMLGDFKLDMLG : ____
stdout: 0.503

stdin: Which growth estimate is listed for EDDDPFSLWDSML ?
stdout: 2.41

stdin: Any idea what growth estimate was measured for PMDDVYNYLFDD ?
stdout: 1.41

stdin: Could you tell me which growth estimate is on file for PFRDTQDDFLKWWRSEEAQ ?
stdout: -0.0923

stdin: Recorded growth estimate for MLSSHGFSVDTSALLDLASP , please?
stdout: -0.145

stdin: Can you share its growth estimate? I mean this sequence: VADDIWPELLSEDL
stdout: 0.612

stdin: What measured growth estimate goes with VAPDIWEELLSEDL ?
stdout: 3.05

stdin: What measured growth estimate goes with VRDDIWEELLSEDL ?
stdout: 0.609

stdin: Record request: growth estimate value, item DLDESWDYIFKTTE
stdout: 0.154

stdin: What does the record list as growth estimate for VADDIWEELLKEDL ?
stdout: 7.64

stdin: Entry EDADEFSLWDSML : reported growth estimate = ?
stdout: 0.354

stdin: Fill in the blank: the reported growth estimate of EKLYSILWSDVY is ____.
stdout: -0.183

stdin: Which measured growth estimate value corresponds to PFPDTQDDFLKWWRKEEAQ ?
stdout: -0.247

* * *

Listing of entries alongside the reported growth estimate.
Test system: Saccharomyces cerevisiae PS128 hsf1 delta, HSF1(1-493) fusion
experiment.summary: growth estimate (transactivation domain function in HSF1 fusion, heat-shock survival) (a.u. (slope of normalised read count over time)); higher = stronger growth at 37°C, i.e. more transactivation activity
measurement.parameters: library: design library
Simply state the number, no unit and no words.

- record.sequence: "DFDLDMLGDFDLDRLG"
  numeric.value: 0.414
- record.sequence: "DFKLDMLGDFDLDMLG"
  numeric.value: 5.13
- record.sequence: "DFDLDKLGDFDLDMLG"
  numeric.value: 1.4
- record.sequence: "EFNDLLDLDFILSG"
  numeric.value: 1.41

Pending sequence:
stdin: Param item = DELKWIIELLEKDG ; retrieve measured growth estimate.
stdout: -0.0445

* * *

Tested on: Saccharomyces cerevisiae PS128 hsf1 delta, HSF1(1-493) fusion
experiment.summary: growth estimate (transactivation domain function in HSF1 fusion, heat-shock survival) (a.u. (slope of normalised read count over time)); higher = stronger growth at 37°C, i.e. more transactivation activity
measurement.parameters: library: design library
growth estimate: recorded values
I only need the number, thanks.

Reference set, count: 4
- record.sequence: "EFNDLLDLDFILSN"
  test.target: "Saccharomyces cerevisiae PS128 hsf1 delta, HSF1(1-493) fusion"
  numeric.value: 1.51
- record.sequence: "PEFPGIELQELQELGALLQQ"
  test.target: "Saccharomyces cerevisiae PS128 hsf1 delta, HSF1(1-493) fusion"
  numeric.value: -0.221
- record.sequence: "TKDDVYNYLFDD"
  test.target: "Saccharomyces cerevisiae PS128 hsf1 delta, HSF1(1-493) fusion"
  numeric.value: -0.238
- record.sequence: "PFNDLLDLDFILSN"
  test.target: "Saccharomyces cerevisiae PS128 hsf1 delta, HSF1(1-493) fusion"
  numeric.value: 0.542

stdin: Can you share its growth estimate? I mean this sequence: DLDESWDYIFPTTE
stdout: 0.0438

stdin: Query: growth estimate; subject: VADDIWEEALSEDL
stdout: -0.233

stdin: Look at this sequence and give its reported growth estimate. QQNGEIAQLWDFP
stdout: -0.243

stdin: Sample DRDLDMLGDFDLDMLG — what was its growth estimate?
stdout: 0.301

stdin: Which measured growth estimate value corresponds to DELSWIIELREKDG ?
stdout: -0.239

stdin: # growth estimate lookup, item TMGDVYNYLFDD
stdout: 0.113

stdin: Any idea what its growth estimate is? The sequence is DFDLDMLGDFDLAMLG
stdout: -0.0527

stdin: Which growth estimate is reported for this sequence? DELSWRIELLEKDG
stdout: -0.216

stdin: I'd like to know its growth estimate. The sequence in question is MLSSHGFSVDTSKLLDLFSP
stdout: -0.143

stdin: Quick check: growth estimate of PEFPGIKLQELQELQALLQQ ?
stdout: -0.02

stdin: Please give the measured growth estimate for this sequence: MLSSHGRSVDTSALLDLFSP
stdout: -0.248

stdin: What value of growth estimate has been recorded for this entry: TMDDVYNYLFDA
stdout: 0.681
